System: Malme-3M
Experiment: NCI tumour cell line growth inhibition, 48 h
The source made the active and inactive calls. Cut-off read from the data, not from the text of the source: active = GI50 up to about 1.1 µM and inactive = higher.
Outcome codes: 1.0 (active), 0.0 (inactive)

INSERT INTO assay_data (compound, label_value) VALUES
  ('O=C(NCCNCCNC(=O)C(F)(F)F)C(F)(F)F', 0.0),
  ('COc1c(OC)c(OC)c(C(=O)/C=C/c2ccccc2)c(OC)c1OC', 0.0),
  ('CC1OC(OC2C(O)COC(OC3C(C)OC(OC4C(OC(=O)[C@]56CCC(C)(C)C[C@@H]5C5=CCC7[C@@]8(C)C[C@H](O)[C@H](OC9OC(CO)C(O)C(OC%10OC(CO)C(O)C(O)C%10O)C9O)[C@@](C)(CO)[C@@H]8CC[C@@]7(C)[C@]5(C)CC6)OCC(O)C4O)C(O)C3OC3OCC(O)(CO)C3O)C2O)C(O)C(O)C1O (stereo partly specified)', 0.0),
  ('COc1ccc(-c2cc(-c3cc(OC)c(OC)c(OC)c3)cc(-c3cc4ccccc4oc3=O)n2)cc1', 0.0),
  ('Cc1ccc(NC(=O)c2cc3ccccc3c(/N=N\c3ccccc3O)c2O)c(C)c1', 1.0),
  ('C[C@]12CC[C@@H]3c4ccc(O)cc4CC[C@H]3[C@@H]1CC[C@@H]2OP(=O)(O)O', 0.0);
